- Tested on: murine hepatocytes
- measurement_description: Assay E: stability in murine hepatocytes
- Assay type: in vitro ADME, mouse
- assay_conditions: Table 12, compounds of the invention, 1 μM, 5% species serum
readout: Mouse Hepatocyte Stability QH (%)
Answers are plain numbers, in %.

Examples from the recorded data:
Cn1cnnc1C1(F)CCN(c2c(C#N)cc(C(C)(F)F)nc2-c2cnc3nn(C)c(C(F)(F)F)c3c2)CC1 [Example 9] :: 34
Cn1cnnc1C1(F)CCN(c2c(C#N)cc(-c3cccnc3)nc2-c2cnc3nn(C(F)(F)F)cc3c2)CC1 [Example 21] :: 35

Here is the next item to consider.
# query: Mouse Hepatocyte Stability QH | item Cn1cnnc1C1(F)CCN(c2c(C#N)cc(C3CC3)nc2-c2cnc3nn(C(F)(F)F)cc3c2)CC1 [Example 2] | system: murine hepatocytes
49

----------
- System: CYP3A4 mRNA
- measurement_description: Assay D: CYP induction screening assay in primary human hepatocytes
- Assay type: in vitro ADME
- assay_conditions: Table 9, compounds of the invention, 48 h
# label = t if n-fold induction of CYP3A4 at 10 μM >= 5 n-fold else f

# example entries with known answers
Cc1ccc(-c2cc(C#N)c(N3CCC(F)(c4nncn4C)CC3)c(-c3cnc4nn(C(F)(F)F)cc4c3)n2)cn1 :: f
Cn1cnnc1C1(F)CCN(c2c(C#N)cc(C3CC3)nc2-c2cnc3nn(C(F)(F)F)cc3c2)CC1 :: f
Cn1cnnc1C1(F)CCN(c2c(C#N)cc(C(F)(F)F)nc2-c2cnc3nn(C(C)(C)C)cc3c2C(F)F)CC1 :: t
Cn1cnnc1C1(F)CCN(c2c(C#N)cc(-c3cccnc3)nc2-c2cnc3nn(C(F)(F)F)cc3c2)CC1 :: f

--- query ---
Item Cc1cc(C#N)c(N2CCC(F)(c3nncn3C)CC2)c(-c2cnc3nn(C(F)(F)F)cc3c2)n1 with n-fold induction of CYP3A4 at 10 μM of 5 n-fold or above?
f

----------
- assay_system: QPCTL (Homo sapiens, UniProt Q9NXS2)
- Construct: made in house
- Sequence (Q9NXS2 whole entry, species assumed): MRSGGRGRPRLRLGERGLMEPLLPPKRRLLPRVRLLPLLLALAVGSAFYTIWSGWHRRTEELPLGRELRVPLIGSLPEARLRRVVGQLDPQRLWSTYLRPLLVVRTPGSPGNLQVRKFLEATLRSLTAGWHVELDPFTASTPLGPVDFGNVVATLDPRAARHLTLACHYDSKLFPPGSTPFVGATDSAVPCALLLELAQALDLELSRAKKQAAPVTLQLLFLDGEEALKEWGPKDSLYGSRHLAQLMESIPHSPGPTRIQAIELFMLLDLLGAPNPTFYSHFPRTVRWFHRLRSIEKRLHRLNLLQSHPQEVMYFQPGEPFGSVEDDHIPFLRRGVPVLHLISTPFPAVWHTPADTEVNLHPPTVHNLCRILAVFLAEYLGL
- measurement_description: Assay A: biochemical QPCTL activity assay (MALDI-TOF MS, CD47 peptide substrate)
- assay_conditions: Table 2, compounds of the invention, read-out: Inhibition of QPCTL: IC50
Label 1 when IC50 is strictly below 3 nM; otherwise label 0.

Cn1cc(-c2cc(C#N)c(N3CCC(F)(c4nncn4C)CC3)c(-c3cnc4nn(C(F)(F)F)cc4c3)n2)cn1 [Example 24] :: 1
Cn1cnnc1C1(F)CCN(c2c(C#N)cc(-c3cccnc3)nc2-c2cnc3nn(C(F)(F)F)cc3c2)CC1 [Example 21] :: 1
Cn1cnnc1C1(F)CCN(c2c(C#N)cc(C(F)(F)F)nc2-c2cc3cn(C(C)(C)C)nc3nc2C(F)F)CC1 [Example 14] :: 0
Cn1cnnc1C1(F)CCN(c2c(C#N)cc(C(C)(F)F)nc2-c2cnc3nn(C)c(C(F)(F)F)c3c2)CC1 [Example 9] :: 0
Cn1cnnc1C1(F)CCN(c2c(C#N)cc(C(F)(F)F)nc2-c2cnc3nn(C)c(C(F)(F)F)c3c2)CC1 [Example 10] :: 0
Cc1ncc(-c2cc(C#N)c(N3CCC(F)(c4nncn4C)CC3)c(-c3cnc4nn(C(F)(F)F)cc4c3)n2)o1 [Example 19] :: 1

Lab note: IC50 threshold 3 nM. Does this molecule come in strictly under it? Cc1ccc(-c2cc(C#N)c(N3CCC(F)(c4nncn4C)CC3)c(-c3cnc4nn(C(F)(F)F)cc4c3)n2)cn1 [Example 22]
1

Lab note: IC50 threshold 3 nM. Does this molecule come in strictly under it? Cn1cnnc1C1(F)CCN(c2c(C#N)cc(C3CC3)nc2-c2ccnnc2)CC1 [Example 1]
1

Lab note: IC50 threshold 3 nM. Does this molecule come in strictly under it? Cc1cc(-c2nc(C3CC3)cc(C#N)c2N2CCC(F)(c3nncn3C)CC2)cnn1 [Example 12]
0

Lab note: IC50 threshold 3 nM. Does this molecule come in strictly under it? Cn1cnnc1C1(F)CCN(c2c(C#N)cc(-c3ccc(F)cc3)nc2-c2ccnnc2)CC1 [Example 18]
0

Lab note: IC50 threshold 3 nM. Does this molecule come in strictly under it? Cn1cnnc1C1(F)CCN(c2c(C#N)cc(C3CC3(F)F)nc2-c2ccnnc2)CC1 (stereo not drawn) [Example 6]
1

Lab note: IC50 threshold 3 nM. Does this molecule come in strictly under it? Cc1nn(C)c(C)c1-c1cc(C#N)c(N2CCC(F)(c3nncn3C)CC2)c(-c2cnc3nn(C(F)(F)F)cc3c2)n1 [Example 23]
1

----------
- measurement_description: Assay C: permeability in CACO-2 cells
- Type: in vitro ADME
- assay_conditions: human, pH 7.2; Table 7, compounds of the invention, CACO-2 cells
# label = Satisfied if Papp A→B >= 6 ×10⁻⁶ cm/s else Not satisfied

# example entries with known answers
Cc1ccc(-c2cc(C#N)c(N3CCC(F)(c4nncn4C)CC3)c(-c3cnc4nn(C(F)(F)F)cc4c3)n2)cn1 [Example 22] :: Satisfied
Cn1cnnc1C1(F)CCN(c2c(C#N)cc(-c3cnc(C(F)(F)F)nc3)nc2-c2cnc3nn(C(F)(F)F)cc3c2)CC1 [Example 20] :: Not satisfied
Cn1cnnc1C1(F)CCN(c2c(C#N)cc(C(F)(F)F)nc2-c2cnc3nn(C(C)(C)C)c(C(F)F)c3c2)CC1 [Example 16] :: Satisfied
Cn1cnnc1C1(F)CCN(c2c(C#N)cc(C3CC3)nc2-c2ccnnc2)CC1 [Example 1] :: Satisfied
Cn1cnnc1C1(F)CCN(c2c(C#N)cc(-c3cccnc3)nc2-c2cnc3nn(C(F)(F)F)cc3c2)CC1 [Example 21] :: Satisfied

Item Cn1cnnc1C1(F)CCN(c2c(C#N)cc(C3CC3(F)F)nc2-c2ccnnc2)CC1 (stereo not shown) [Example 6] with Papp A→B of 6 ×10⁻⁶ cm/s or above?
Not satisfied

Item Cc1nn(C)cc1-c1cc(C#N)c(N2CCC(F)(c3nncn3C)CC2)c(-c2cnc3nn(C(F)(F)F)cc3c2)n1 [Example 17] with Papp A→B of 6 ×10⁻⁶ cm/s or above?
Not satisfied

----------
- measurement_description: Assay C: permeability in CACO-2 cells
- Format: in vitro ADME
- assay_conditions: human, Caco-2, pH 7.2
readout: Papp A→B

COc1ccc(-c2cnc3nccn3c2)c(N2CCC(c3nncn3C)CC2)c1C#N [Compound 94, reference compound] :: < 14 nm/s
Cn1cnnc1C1CCN(c2c(C#N)cccc2-c2cnc3[nH]nc(O)c3c2)CC1 [Compound 113, reference compound] :: < 7.8 nm/s

GET /values?readout=Papp A→B&item= Cn1cnnc1C1CCN(c2c(C#N)cccc2-c2cnc3nccn3c2)CC1 [Compound 93, reference compound]
< 0.4 nm/s

----------
- measurement_description: Assay C: permeability in CACO-2 cells
- Format: in vitro ADME
- assay_conditions: human, Caco-2, pH 7.2; read-out: Efflux Ratio
So I've got a bunch of molecules here, and I need their efflux ratio values.

Examples from the recorded data:
Cn1cc2c(-c3cccc(C#N)c3N3CCC(c4nncn4C)CC3)cncc2n1 [Compound 16, reference compound] :: > 21.7
COc1ccc(-c2ccnnc2)c(N2CCC(c3nncn3C)CC2)c1C#N [Compound 26, reference compound] :: > 135

Here is the next item to consider.
GET /values?readout=efflux ratio&item= Cn1cnnc1C1CCN(c2c(C#N)cccc2-c2cnc3nccn3c2)CC1 [Compound 93, reference compound]
> 40

----------
- Tested on: CYP3A4 mRNA
- measurement_description: Assay D: CYP induction screening assay in primary human hepatocytes
- Type: in vitro ADME
- assay_conditions: Table 10, prior art compounds, 48 h
Label True when n-fold induction of CYP3A4 at 10 μM is strictly below 1 n-fold; otherwise label False.

# example entries with known answers
Cn1cnnc1C1CCN(c2c(C#N)cccc2-c2cnc3nccn3c2)CC1 [Compound 93, reference compound] :: True
Cn1cnnc1C1CCN(c2c(C#N)cccc2-c2cnc3[nH]nc(O)c3c2)CC1 [Compound 113, reference compound] :: True
Cn1cnnc1C1CCN(c2c(C#N)cccc2-c2cncc3c2cnn3C)CC1 [Compound 4, reference compound] :: True
Cn1cnnc1C1CCN(c2c(C#N)cccc2-c2ccc3ocnc3c2)CC1 [Compound 15, reference compound] :: False
Cn1cnnc1C1CCN(c2c(C#N)cccc2-c2cnc3cn[nH]c3c2)CC1 [Compound 125, reference compound] :: False

Lab note: n-fold induction of CYP3A4 at 10 μM threshold 1 n-fold. Does this compound come in strictly under it? Cn1cncc1C1CCN(c2c(C#N)cccc2-c2ccc(F)nc2)CC1 [QP5038, reference compound]
False

Lab note: n-fold induction of CYP3A4 at 10 μM threshold 1 n-fold. Does this compound come in strictly under it? Cn1cnnc1C1CCN(c2c(-c3ccnnc3)ccc(Cl)c2C#N)CC1 [Compound 33, reference compound]
False

Lab note: n-fold induction of CYP3A4 at 10 μM threshold 1 n-fold. Does this compound come in strictly under it? COc1ccc(-c2ccnnc2)c(N2CCC(c3nncn3C)CC2)c1C#N [Compound 26, reference compound]
False

Lab note: n-fold induction of CYP3A4 at 10 μM threshold 1 n-fold. Does this compound come in strictly under it? COc1ccc(-c2cnc3nccn3c2)c(N2CCC(c3nncn3C)CC2)c1C#N [Compound 94, reference compound]
True

These data points were gathered from patent US20250250251A1.
